TARGET UNDER TEST: BACE (Homo sapiens, UniProt P56817)
Construct: Cells stably expressing Amyloid Precursor Protein (APP) were plated at a density of 40K cells/well in 96 well plates; endogenous in cells
Sequence (P56817 46-501): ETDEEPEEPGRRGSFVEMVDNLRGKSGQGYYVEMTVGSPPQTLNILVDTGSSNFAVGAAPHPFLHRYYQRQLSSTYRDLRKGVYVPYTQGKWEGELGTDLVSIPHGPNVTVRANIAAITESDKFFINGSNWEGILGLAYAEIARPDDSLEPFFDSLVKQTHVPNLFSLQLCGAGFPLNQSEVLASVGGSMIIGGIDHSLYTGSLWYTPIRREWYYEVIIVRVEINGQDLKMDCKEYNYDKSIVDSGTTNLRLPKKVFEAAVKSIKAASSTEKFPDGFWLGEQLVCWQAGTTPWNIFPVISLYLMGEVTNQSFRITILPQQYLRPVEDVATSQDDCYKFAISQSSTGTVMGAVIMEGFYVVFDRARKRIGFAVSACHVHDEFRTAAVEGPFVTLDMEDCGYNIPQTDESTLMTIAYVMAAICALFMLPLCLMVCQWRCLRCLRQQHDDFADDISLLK
TEST DESCRIPTION: In vitro enzymatic BACE FRET assay (Enzyme Assay)
Format: biochemical
TEST SETTINGS: pH 4.2, enzyme 0.2 nM, FRET substrate 50 nM
PARAMETER MEASURED: IC50

CCc1ccc2c(c1)[C@@H](NC[C@@H](O)[C@H](Cc1ccccc1)Nc1ccc(Cl)nn1)CC1(CCC1)O2 ... 10 to 25 µM
CC(C)(C)Cc1cnc2c(c1)[C@@H](NC[C@@H](O)[C@H](Cc1ccc(F)cc1)Nc1ncnc3ccsc13)CC1(CCC1)O2 ... 5 to 10 µM

Now examine the next entry.
Tell me IC50 reported for CCc1ccc2c(c1)[C@@H](NC[C@@H](O)[C@H](Cc1ccccc1)Nc1cccnc1)CC1(CCC1)O2
10 to 25 µM

* * *

TARGET UNDER TEST: BACE (Homo sapiens, UniProt P56817)
Construct: Cells stably expressing Amyloid Precursor Protein (APP) were plated at a density of 40K cells/well in 96 well plates; endogenous in cells
TEST DESCRIPTION: In vitro enzymatic BACE FRET assay (Enzyme Assay)
Format: biochemical
TEST SETTINGS: pH 4.2, enzyme 0.2 nM, FRET substrate 50 nM
# IC50 annotations

CC(C)(C)Cc1cnc2c(c1)[C@@H](NC[C@@H](O)[C@H](Cc1ccc(F)cc1)Nc1ncnc3sccc13)CC1(CCC1)O2 ... 10 to 25 µM
CCOc1c(N[C@@H](Cc2cccc(F)c2)[C@H](O)CN[C@H]2CC3(CCC3)Oc3ncc(CC(C)(C)C)cc32)c(=O)c1=O ... < 0.1 µM
CCc1ccc2c(c1)[C@@H](NC[C@@H](O)[C@H](Cc1cccc(C#N)c1)Nc1ccccc1F)CC1(CCC1)O2 ... 1 to 5 µM
O[C@H](CN[C@H]1CC2(CCC2)Oc2ccc(Br)cc21)[C@H](Cc1ccccc1)Nc1nccn2cnnc12 ... 10 to 25 µM
CC(C)(C)Cc1cnc2c(c1)[C@@H](NC[C@@H](O)[C@H](Cc1cc(F)cc(F)c1)Nc1ccccc1F)CC1(CCC1)O2 ... 1 to 5 µM

Tell me IC50 reported for CCc1ccc2c(c1)[C@@H](NC[C@@H](O)[C@H](Cc1ccccc1)Nc1nc3ccccc3o1)CC1(CCC1)O2
10 to 25 µM

Tell me IC50 reported for CC(C)(C)Cc1cnc2c(c1)[C@@H](NC[C@@H](O)[C@H](Cc1cc(F)cc(F)c1)Nc1ccnc(Cl)n1)CC1(CCC1)O2
< 0.1 µM

Tell me IC50 reported for CCc1ccc2c(c1)[C@@H](NC[C@@H](O)[C@H](Cc1ccccc1)Nc1nccc(C(F)(F)F)n1)CC1(CCC1)O2
10 to 25 µM

Tell me IC50 reported for CSc1nc(Cl)cc(N[C@@H](Cc2ccc(F)cc2)[C@H](O)CN[C@H]2CC3(CCC3)Oc3ncc(CC(C)(C)C)cc32)n1
5 to 10 µM

Tell me IC50 reported for CC(C)(C)Cc1cnc2c(c1)[C@@H](NC[C@@H](O)[C@H](Cc1ccc(F)cc1)Nc1ccnc(Cl)n1)CC1(CCC1)O2
1 to 5 µM
